- assayed.target: human EGFR WT (NIH/3T3 cells, EGF-induced) (Homo sapiens)
- Sequence (P00533 25-1210): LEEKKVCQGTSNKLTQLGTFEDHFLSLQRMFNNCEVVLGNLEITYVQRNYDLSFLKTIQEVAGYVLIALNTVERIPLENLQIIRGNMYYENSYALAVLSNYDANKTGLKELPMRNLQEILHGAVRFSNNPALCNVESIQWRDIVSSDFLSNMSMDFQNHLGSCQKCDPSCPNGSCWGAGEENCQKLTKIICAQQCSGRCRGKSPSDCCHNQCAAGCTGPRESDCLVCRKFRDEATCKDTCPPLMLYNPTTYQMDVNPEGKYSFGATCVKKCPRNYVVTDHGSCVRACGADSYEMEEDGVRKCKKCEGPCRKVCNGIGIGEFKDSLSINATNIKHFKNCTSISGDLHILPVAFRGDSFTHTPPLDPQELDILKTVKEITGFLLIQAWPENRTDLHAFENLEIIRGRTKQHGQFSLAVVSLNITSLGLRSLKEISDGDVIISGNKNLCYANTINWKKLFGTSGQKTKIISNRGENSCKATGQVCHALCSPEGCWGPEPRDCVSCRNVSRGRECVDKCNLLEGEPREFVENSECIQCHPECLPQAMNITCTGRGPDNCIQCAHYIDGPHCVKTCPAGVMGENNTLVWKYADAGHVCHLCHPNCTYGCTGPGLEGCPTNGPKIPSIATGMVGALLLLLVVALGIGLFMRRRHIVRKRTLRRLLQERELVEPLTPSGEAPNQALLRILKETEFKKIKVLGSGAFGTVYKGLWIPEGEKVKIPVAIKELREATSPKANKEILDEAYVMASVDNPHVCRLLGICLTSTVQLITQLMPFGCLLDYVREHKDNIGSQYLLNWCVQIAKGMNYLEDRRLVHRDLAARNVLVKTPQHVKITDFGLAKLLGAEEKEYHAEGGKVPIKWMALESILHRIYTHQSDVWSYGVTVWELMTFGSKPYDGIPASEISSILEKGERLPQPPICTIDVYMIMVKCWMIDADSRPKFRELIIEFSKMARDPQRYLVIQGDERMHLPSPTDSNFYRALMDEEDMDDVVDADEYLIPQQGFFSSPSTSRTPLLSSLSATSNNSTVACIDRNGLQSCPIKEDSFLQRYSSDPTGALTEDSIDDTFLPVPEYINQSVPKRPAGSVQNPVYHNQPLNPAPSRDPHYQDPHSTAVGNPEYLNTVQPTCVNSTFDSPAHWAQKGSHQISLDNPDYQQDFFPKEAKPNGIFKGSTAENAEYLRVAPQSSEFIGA
- assay.explanation: EGFR target modulation in engineered NIH/3T3 cell lines (phospho-EGFR Y1068 AlphaLISA), EGFR WT
- Format: cell-based
- condition.parameters: engineered NIH/3T3 cells, read-out: NIH3T3 IC50 (μM) EGFR (WT)
readout.label: IC50 (µM)
Respond numerically; units are µM and should not be typed.

Please review the entries below; each comes with its answer.
• Cc1cc(C(=O)Nc2nc3cccc(C)c3n2[C@@H]2CCCCN(C(=O)/C=C/CN(C)C)C2)cnn1 [Example 17-82] = 0.187
• Cc1cc(C(=O)Nc2nc3cccc(Cl)c3n2[C@@H]2CCCCN(C(=O)/C=C/CN3CC[C@H](F)C3)C2)ccn1 [Example 3-2] = 0.303
• C=C(CN(CC)CC)C(=O)N1CCCC[C@@H](n2c(NC(=O)c3ccnnc3)nc3cccc(C)c32)C1 [Example 17-92] = 1.83

Next up:
Quick note, IC50 for C=CC(=O)N1CCCC[C@@H](n2c(NC(=O)c3ccnc(C)c3)nc3cc(CN4CCCC4)cc(C)c32)C1 [Example 17-126] landed at 0.024
